- Test Target: Rhodesain (Trypanosoma brucei rhodesiense) (UniProt Q95PM0)
- Sequence (Q95PM0 1-450): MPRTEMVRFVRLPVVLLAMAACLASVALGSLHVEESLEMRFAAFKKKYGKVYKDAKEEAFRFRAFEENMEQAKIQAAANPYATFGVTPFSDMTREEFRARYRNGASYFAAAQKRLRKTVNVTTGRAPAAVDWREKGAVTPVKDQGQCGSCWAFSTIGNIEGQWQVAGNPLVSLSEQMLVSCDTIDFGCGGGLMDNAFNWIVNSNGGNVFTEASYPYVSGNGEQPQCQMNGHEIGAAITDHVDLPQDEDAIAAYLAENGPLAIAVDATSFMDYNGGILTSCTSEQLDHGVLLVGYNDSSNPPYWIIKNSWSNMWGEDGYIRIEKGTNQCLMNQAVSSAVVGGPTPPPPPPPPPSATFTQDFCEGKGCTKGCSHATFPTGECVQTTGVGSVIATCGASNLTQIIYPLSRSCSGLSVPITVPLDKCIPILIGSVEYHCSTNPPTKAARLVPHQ
- Test Method Notes: Inhibition of Trypanosoma brucei rhodesiense rhodesain expressed in Pichia pastoris assessed as second order rate constant obtained from ratio of Kinact to Ki measured for 30 mins using Cbz-Phe-Arg-AMC as substrate by fluorescence assay
Listed here: items and their measured K.
Answer format: numeric, ×10³ /M/min implied, no suffix.

| Molecular String | K (×10³ /M/min) |
| --- | --- |
| CCC(=O)/C=C/[C@H](CCc1ccccc1)NC(=O)[C@H](Cc1ccccc1)NC(=O)OCc1ccccc1 | 1800 |
| CC(=O)/C=C/[C@H](CCc1ccccc1)NC(=O)[C@H](Cc1ccccc1)NC(=O)c1ccc2c(c1)OCCO2 | 7200 |
| CC(=O)/C=C/[C@H](CCc1ccccc1)NC(=O)[C@H](Cc1ccccc1)NC(=O)c1ccc(F)cc1F | 107000 |
| CC(=O)/C=C/[C@H](CCc1ccccc1)NC(=O)[C@H](Cc1ccccc1)NC(=O)c1ccc(F)cc1 | 881000 |
| CC(=O)/C=C/[C@H](CCc1ccccc1)NC(=O)[C@H](CCc1ccccc1)NC(=O)OCc1ccccc1 | 137 |
| CC(=O)/C=C/[C@H](CCc1ccccc1)NC(=O)[C@H](Cc1ccccc1)NC(=O)Cc1ccc2c(c1)OCO2 | 435 |

So for CC(=O)/C=C/[C@H](CCc1ccccc1)NC(=O)[C@H](Cc1ccccc1)NC(=O)c1ccc(Cl)cc1 , the logged K turned out to be 29300

Consider CC(=O)/C=C/[C@H](CCc1ccccc1)NC(=O)[C@H](Cc1ccccc1)NC(=O)c1ccccc1F . Its measured K is 230000

Looking up CC(=O)/C=C/[C@H](CCc1ccccc1)NC(=O)[C@H](Cc1ccccc1)NC(=O)c1cc(F)cc(F)c1 , I found its K recorded as 113000

Note to self: K recorded for CC(=O)/C=C/[C@H](CCc1ccccc1)NC(=O)[C@H](Cc1ccccc1)NC(=O)N1CCN(C)CC1 was 266

// K value for CC(=O)/C=C/[C@H](CCc1ccccc1)NC(=O)[C@H](Cc1ccccc1)NC(=O)c1ccc(C(F)(F)F)cc1 : 175000

The compound CC(=O)/C=C/[C@H](CCc1ccccc1)NC(=O)[C@H](Cc1ccccc1)NC(=O)c1cccc(F)c1 showed K equal to 149000

Entry CC(=O)/C=C/[C@H](CCc1ccccc1)NC(=O)[C@H](Cc1ccccc1)NC(=O)N1CCOCC1 ; K = 157

The compound CC(=O)/C=C/[C@H](CCc1ccccc1)NC(=O)[C@H](Cc1ccccc1)NC(=O)c1c(F)cccc1F showed K equal to 151000

# K of CC(=O)/C=C/[C@H](CCc1ccccc1)NC(=O)[C@H](Cc1ccccc1)NC(=O)c1ccc2c(c1)OCO2 = 15300

* * *

- Test Target: UniProt:P07711
- Sequence (P07711 whole entry): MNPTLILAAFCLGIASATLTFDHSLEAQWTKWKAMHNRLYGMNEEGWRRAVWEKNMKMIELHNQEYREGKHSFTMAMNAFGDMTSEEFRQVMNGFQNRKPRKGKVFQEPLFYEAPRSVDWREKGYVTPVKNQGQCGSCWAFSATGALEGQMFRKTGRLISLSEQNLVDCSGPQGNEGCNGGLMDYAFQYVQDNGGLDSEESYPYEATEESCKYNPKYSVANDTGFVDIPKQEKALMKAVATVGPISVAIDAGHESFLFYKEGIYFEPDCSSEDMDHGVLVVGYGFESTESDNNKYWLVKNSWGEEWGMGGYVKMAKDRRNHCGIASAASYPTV
Below, each entry is listed with its recorded Ki.
Number only, in nM; omit the unit.

Some solved entries appear below for comparison.
| Molecular String | Test Target | Ki [nM] |
| --- | --- | --- |
| CC(=O)/C=C/[C@H](CCc1ccccc1)NC(=O)[C@H](Cc1ccccc1)NC(=O)N1CCN(C)CC1 | UniProt:P07711 | 158 |
| CC(=O)/C=C/[C@H](CCc1ccccc1)NC(=O)[C@H](Cc1ccccc1)NC(=O)c1ccc(Cl)cc1 | UniProt:P07711 | 0.6 |
| CC(=O)/C=C/[C@H](CCc1ccccc1)NC(=O)[C@H](Cc1ccccc1)NC(=O)c1ccccc1F | UniProt:P07711 | 5.3 |

Measured on UniProt:P07711, CCC(=O)/C=C/[C@H](CCc1ccccc1)NC(=O)[C@H](Cc1ccccc1)NC(=O)OCc1ccccc1 has a documented Ki of 108
